protocol: OD615 S. cerevisiae growth inhibition, permissive medium, pilot counter-assay, permissive growth control for S. cerevisiae lifespan shortening project (AID 705)
condition-details: OD615, 24 h, at 10 µM, stronger effect = higher value
measured-metric: growth inhibition (%)
Reply with just the number (in %).

Prompt: # return recorded growth inhibition for input COc1ccc(C2C(C(=O)NC(C)C)c3ccccc3C(=O)N2C)cc1OC (stereo not given)
Completion: -12.9

Prompt: Tell me its growth inhibition given CCOC(=O)C1Cn2c(nc3c(c2=O)C(C)(C)Cc2ccccc2-3)S1 (stereo not given) as the entry.
Completion: -1.77

Prompt: Quick one: give measured growth inhibition for CCCN(CCC)S(=O)(=O)c1ccc(C(=O)NCc2ccc3c(c2)OCO3)cc1
Completion: -12.9

Prompt: Identify the reported growth inhibition for the following entry. CCOc1ccc(Cn2nnc(C(=O)NCc3ccccc3)c2N)cc1
Completion: 2.25

Prompt: Input Brc1cccc(-c2nc(-c3ccncc3)no2)c1 , output reported growth inhibition.
Completion: -7.69

Prompt: Tell me its growth inhibition given Cc1ccc(CNC(=O)CCS(=O)(=O)c2cccc3nonc23)cc1 as the entry.
Completion: 8.16

Prompt: Output measured growth inhibition for this item: COc1ccc(N2CSC3=C(C#N)C(c4cccc(OC)c4OC)CC(=O)N3C2)cc1 (stereo not given)
Completion: -1.74

Prompt: For O=c1c2ccccc2[nH]c(=S)n1Cc1cccnc1 , write its growth inhibition.
Completion: 6.04

Prompt: Complete the entry with growth inhibition for O=C(COCCOCC(=O)N(c1ccccn1)C1CCCCC1)N(c1ccccn1)C1CCCCC1
Completion: -12.8

Prompt: Please report growth inhibition for the following compound: COc1ccc2cc3c(N)nn(C(=O)Cc4ccccc4OC)c3nc2c1
Completion: 10.1

Prompt: Please give measured growth inhibition of the following entry: CN1CCN(Cc2ccc(OCc3ccccc3)cc2)CC1
Completion: -3.27

Prompt: Assign growth inhibition to the following record: COC(=O)CCc1nc2ccccc2[nH]c1=O
Completion: -6.03

Prompt: Output growth inhibition of O=C(c1cnc2n(c1=O)CCS2)N1CCN(C(c2ccccc2)c2ccc(Cl)cc2)CC1 (stereo not given)
Completion: -9.19

Prompt: Please report the measured growth inhibition for COCCNC(=O)c1cn(C)c(=O)c2cc(OC)c(OC)cc12
Completion: -20.6

Prompt: Provide only the value of recorded growth inhibition for CCOC(=O)c1c(NC(=O)c2cc(C3CC3)on2)sc(C(C)=O)c1C
Completion: -3.19

Prompt: Report measured growth inhibition; entry is Cn1c(CSc2nc3ccc(Br)cc3[nH]2)nc2ccccc21
Completion: -3.63

Prompt: Hello, please tell me recorded growth inhibition for this one: O=C(CN1CCN(c2ccccn2)CC1)Nc1cccc(C(F)(F)F)c1
Completion: -3.17

Prompt: Look up and state reported growth inhibition for Cc1ccc(N2CC(C(=O)OCC(=O)C(C)(C)C)CC2=O)cc1 (stereo not given)
Completion: 7.84

Prompt: Return value of growth inhibition for input CCCCOc1ccccc1C1C(C(=O)OC)=C(C)N(C)C(C)=C1C(=O)OC , no commentary.
Completion: -4.46

Prompt: Tell me measured growth inhibition for O=C(C1CC(c2ccc(F)cc2)=NO1)N1CCc2ccccc2C1 (stereo not given) please.
Completion: 1.34

Prompt: Identify the reported growth inhibition for the following entry. Cc1c(NC2=C(Cl)C(=O)N(c3ccccc3)C2=O)c(=O)n(-c2ccccc2)n1C
Completion: 8.25

Prompt: Note growth inhibition for the compound shown: COc1cc(=O)[nH]c(=O)n1C(=O)Cc1ccccc1
Completion: -1.48

Prompt: // Input: Cc1nc(-c2ccc(S(=O)(=O)N3CCCCCC3)cc2)cs1 . Output its growth inhibition only.
Completion: 10.7

Prompt: Give the reported value of growth inhibition for this record: Cc1cc(C)n(-c2nnc(C)n2/N=C/c2cc(Br)ccc2OCc2ccccc2)n1
Completion: -10.3

Prompt: Return value of growth inhibition for input CC1CCc2sc3nc(N4CCN(CCO)CC4)n4ncnc4c3c2C1 (stereo not given) , no commentary.
Completion: -9.92

Prompt: Tell me its growth inhibition given CCN(CC)C(=O)c1cn(C)c(=O)c2cc(OC)c(OC)cc12 as the entry.
Completion: -12.1

Prompt: Return reported growth inhibition. Input compound: Cn1c(Cn2c(=O)sc3ccccc32)nnc1SCC(=O)NCC1CCCO1 (stereo not given)
Completion: -6.81

Prompt: Note growth inhibition for the compound shown: CCOC(=O)c1cnc2c(C#N)c(C)nn2c1-c1ccccc1
Completion: -5.3

Prompt: Give growth inhibition for Cc1cc2nc3c(c(=O)n2[nH]1)CCCC3
Completion: -6.41

Prompt: Fill in growth inhibition for record O=C(O)CCNc1cc2ccccc2cc1C(=O)O
Completion: -15.4

Prompt: Return growth inhibition for the following compound: O=C(O)CCCC(=O)N1CCN(c2cccc(Cl)c2)CC1
Completion: -2.97

Prompt: Return the recorded growth inhibition value; entry: CCN(CC)P1(=O)OC(c2cc(OC)c(OC)c(OC)c2)=Nc2c1c(C)nn2-c1ccccc1 (stereo not given)
Completion: -7.12

Prompt: Indicate the recorded growth inhibition value for this compound: Cc1cc(C)n2nc(CCc3nc4nc(C)cc(C)n4n3)nc2n1
Completion: 3.12

Prompt: Quote growth inhibition reported for Cn1c(Cn2c(=O)sc3ccccc32)nnc1SCC(=O)NCc1ccc2c(c1)OCO2 please.
Completion: -5.55

Prompt: Give reported growth inhibition value for CCOC(=O)C1C(=O)CC(C)(O)C(C(=O)OCC)C1/C=C/c1ccccc1 (stereo not given)
Completion: -4.58

Prompt: Quick one: give measured growth inhibition for CCS(=O)(=O)Nc1ccc(-c2ccc(NS(=O)(=O)CC)c(OC)c2)cc1OC
Completion: -3.19

Prompt: Provide only the value of recorded growth inhibition for CCCSc1nnc2c(n1)OC(c1cccn1C)N(C(C)=O)c1ccccc1-2 (stereo not given)
Completion: -1.32

Prompt: Annotate the compound CCC(=O)NC(C)c1nc2ccccc2n1C (stereo not given) with its measured growth inhibition.
Completion: -9.66

Prompt: Give a short answer stating reported growth inhibition for Cc1ccccc1-n1nc2c(c1NC(=O)COc1ccc(Cl)cc1)CS(=O)C2 (stereo not given) .
Completion: -5.57

Prompt: Let me know recorded growth inhibition for C=CCn1c(C)cc(C(=O)COc2nncc3ccccc23)c1C , thanks.
Completion: -10.3

Prompt: Look up and report measured growth inhibition for this entry: COC(=O)C1=C(C)N(C)C(=O)NC1c1ccc(C)cc1 (stereo not given)
Completion: 0.9

Prompt: Tell us which growth inhibition value is on record for CCn1c(C)c2c(C)nnc(C)c2c1C
Completion: -7.03

Prompt: For the compound O=C(Cn1c(=O)oc2ccccc21)N1CCN(c2ccc(N3CCOCC3)nn2)CC1 , report growth inhibition.
Completion: -0.78

Prompt: For the compound CCSc1nc2c(c(=O)n1-c1ccc(F)cc1)SCC2 , give its reported growth inhibition.
Completion: -7.3

Prompt: Quote growth inhibition reported for CCc1nnc(NC(=O)CSc2nnc(Cc3cccn3C)n2C)s1 please.
Completion: 5.43

----------
protocol: growth suppression of PTEN-deleted HCT116, pilot screen, cell-based, HCT116 clonal line, CellTiter-Glo (AID 824);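 note: 0% = 20 µM Hyamine control and 100% = vehicle cell control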
condition-details: 60 h, at 10 µM
Inconclusive results are not listed. Calls of active or inactive are those of the source.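 Rule for the calls: active = viability at or below 27.92% in each of two runs, the all-compound median minus 4 SD; inconclusive = no clear call, values can overlap the other calls; inactive = the rest.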
Form entry, call: pick from yes (1) for active, no (0) for inactive

Prompt: Please share the test call associated with Cc1ccc(-c2nc3cccnc3o2)cc1NC(=O)COc1ccc(Cl)cc1C .
Completion: yes (1)

Prompt: Tell me the assay call for Cc1ccc(NC(=O)CSC2=C(C#N)C(c3ccc4c(c3)OCO4)C3=C(CCCC3=O)N2)c(C)c1 (stereo unspecified) please.
Completion: no (0)

Prompt: GET /call?item= O=C(Nc1nc2cc3c(cc2s1)OCO3)C1=COCCO1 returns the recorded outcome of this test.
Completion: no (0)

Prompt: Answer briefly: the call reported for COc1ccc(Nc2ccc3c(c2)=NC2(CCCCC2)[N+]=3[O-])cc1 in this assay.
Completion: yes (1)

Prompt: Recorded test outcome, item O=C(Nc1nnc(CC(=O)N2CCCC2)s1)c1cnccn1
Completion: no (0)

Prompt: Lab log entry: COc1ccc(S(=O)(=O)Cc2ccc(C(=O)N3CCN(C(=O)c4ccco4)CC3)o2)cc1 — outcome as called in the assay?
Completion: no (0)

Prompt: Could you please tell me the result logged for O=C(CSc1ccc2nnc(-c3ccc(F)cc3)n2n1)N1CCOCC1 in this assay?
Completion: no (0)

Prompt: Could you kindly confirm the outcome this assay logged for Cc1noc(NS(=O)(=O)c2ccc(NC(=O)COc3ccc(Cl)cc3Cl)cc2)c1C ?
Completion: no (0)

Prompt: Could you please tell me the result logged for CCC(C)N1CC23C=CC(O2)C(C(=O)OC)C3C1=O (stereo unspecified) in this assay?
Completion: no (0)

Prompt: # outcome recorded in this test, key = CC(C)(Oc1ccc(Cl)cc1)C(=O)Nc1ncccn1
Completion: no (0)

Prompt: Recorded test call requested for CCOC(=O)CSC1=C(C#N)C(c2ccccc2Cl)C(C(=O)OC)C(=O)N1 (stereo unspecified)
Completion: no (0)

Prompt: Outcome? Cc1ccccc1NC(=O)CSC(N)=O
Completion: no (0)

Prompt: So what was the verdict on CCOc1cc(C2CC(=O)NC(SCC)=C2C#N)ccc1O (stereo unspecified) in this test?
Completion: no (0)

Prompt: What did this assay record as the result for CC1CN(c2ncnc3c2cnn3-c2ccc(Cl)cc2)CC(C)O1 (stereo unspecified) ?
Completion: no (0)

Prompt: Recorded test outcome, item Brc1[nH]nc2ccccc12
Completion: no (0)

Prompt: What was the test verdict on CCOc1ccc(N(CC(=O)O)S(=O)(=O)c2ccc(OC)c(OC)c2)cc1 ?
Completion: no (0)

Prompt: Any idea what this test logged for CCCCCn1c(=O)[nH]c2c(c1=O)CCC2 ?
Completion: no (0)

Prompt: Short answer needed: outcome of this test for CCN(CC)P1(=O)OC(c2cc(OC)c(OC)c(OC)c2)=Nc2c1c(C)nn2-c1ccccc1 (stereo unspecified) ?
Completion: no (0)

Prompt: Hi team, can someone confirm the assay call for CCN(CC)C(=O)CSc1nsc(SCC(=O)N(CC)CC)c1C#N ?
Completion: no (0)

Prompt: // param item: CCOC(=O)C1=C(C)NC(=O)NC1c1ccc(OCC(=O)Nc2ccccc2)c(OC)c1 (stereo unspecified) ; yields the recorded call
Completion: no (0)

Prompt: Record lookup: outcome of this test for CCOc1ccc(C2N(c3ccc(OC)cc3)C(=O)C3CCCN32)cc1OC (stereo unspecified) ?
Completion: no (0)

Prompt: Any idea what this test logged for COc1cc(C2CC(=O)N3CN(Cc4ccco4)CSC3=C2C#N)ccc1OCc1ccccc1 (stereo unspecified) ?
Completion: no (0)

Prompt: Could you check what this test reported for Cc1ccc(-c2nc(C3CCCN(S(=O)(=O)c4ccc(C)cc4)C3)no2)cc1 (stereo unspecified) ?
Completion: no (0)

Prompt: Please indicate how the test categorized CCC(C)NC(=O)c1cn(C)c(=O)c2cc(OC)c(OC)cc12 (stereo unspecified) .
Completion: no (0)

Prompt: How was COc1cc(C(C)=O)ccc1OC(=O)C(C)N1C(=O)c2ccccc2C1=O (stereo unspecified) classified in this test?
Completion: no (0)

Prompt: Just curious, what result did O=S(=O)(c1cccs1)n1nnc2ccccc21 get here?
Completion: no (0)

Prompt: Test call for this compound, please: Nc1nc(Nc2ccccc2Br)nc(C(F)(F)F)n1
Completion: no (0)

Prompt: For CCN(c1ccccc1)c1cc(C)nc2nc(C)nn12 , what call appears in the results of this test?
Completion: no (0)

Prompt: // return assay outcome for CCCCN(C(=O)NC(=O)Nc1nc2ccc(OC)cc2s1)S(C)(=O)=O
Completion: no (0)

Prompt: What did the test return for O/N=C(/Cc1ccccn1)c1ccccc1 ?
Completion: no (0)

Prompt: Can you look up the reported call for Cc1cc(S(=O)(=O)N2CCN(c3ccc(F)cc3)CC2)c(C)s1 for me?
Completion: no (0)

Prompt: Look up the recorded call for Cc1cc(C)n(C(=O)CCCC(=O)n2nc(C)cc2C)n1 in this test.
Completion: no (0)

Prompt: Please share the test call associated with O=C1CC(c2ccc(S(=O)(=O)NCc3ccncc3)cc2)CN1 (stereo unspecified) .
Completion: no (0)

Prompt: # lookup: test call for O=C(Cn1cc2c(n1)CCCCC2)NC1CCCCCC1
Completion: no (0)

Prompt: Dear all, I need the recorded test outcome for CC(=O)C1C(c2ccccc2Cl)NC(=O)NC1(O)C(F)(F)F (stereo unspecified) , thank you.
Completion: no (0)

Prompt: Would you mind telling me which call this test gave CCc1nnc(NC(=O)CSc2nnc(Cc3cccn3C)n2C)s1 ?
Completion: no (0)

Prompt: Recorded test outcome, item Cc1ccc(NC(=O)c2cc(-c3cccc(O)c3)on2)cc1C
Completion: no (0)

Prompt: Returns: the outcome recorded for CCCCNc1ncnc2c1cnn2-c1ccccc1 in this assay.
Completion: no (0)

Prompt: Look up the recorded call for COc1cccc(-c2nnc(NC(=O)C3CCCCC3)o2)c1 in this test.
Completion: no (0)

Prompt: Hi, do you know how Clc1ccccc1C1CC(c2ccccc2)Nc2ncnn21 (stereo unspecified) came out in this test?
Completion: no (0)

Prompt: Tell me the recorded outcome of this test for C#CCn1c(=NC(=O)c2cccs2)sc2cccc(OC)c21 .
Completion: no (0)

Prompt: State the result this test recorded for O=C(CSc1nc2c(c(=O)n1-c1ccc(Cl)cc1)SCC2)Nc1ccc2c(c1)OCCO2 .
Completion: no (0)

Prompt: Recorded test call requested for CC1(C)CC(=O)C2=C(C1)N(c1ccc(F)cc1)C(=O)CC2c1cccnc1 (stereo unspecified)
Completion: no (0)

Prompt: Could you check what this test reported for COc1cccc(C2NC(=O)NC(C)=C2C(=O)Nc2cc(OC)ccc2OC)c1 (stereo unspecified) ?
Completion: no (0)

Prompt: Kindly provide the recorded test outcome for the following compound: COC(=O)C(C)Sc1nnc(-c2ccncc2)o1 (stereo unspecified)
Completion: no (0)

Prompt: Fill in: this test's call for CCOCCCNC(=O)C(c1ccc(Cl)cc1)N1CCC2(CC1)OCCO2 (stereo unspecified) is ___
Completion: no (0)

Values from PubChem BioAssay
